target: cynomolgus PAI-1 (cynomolgus, UniProt P05121 24-402 (human entry), limits assumed); assay: cell-based or functional assay
Consider the following binders; for each one, report its Chromogenic (IC50 in nM) cyno.
Answers are plain numbers, in nM.

>>> quantitative_readout("Antibody 11 scFv (scFv) QVQLQQSGAEVKKPGSSVKVSCKASGGTFSSYAISWMRQAPGQGLEWMGGIIPIFGTANYAQKFQGRVTITADESTSTAYMELSGLRSEDTAVYYCAREKRQWLEGHFDYWGRGTPVTVSSDIQMIQSPSFLSASTGDRVTITCQASEGIYHELAWYQQKPGKAPKLLIYRASSLASGAPSRFSGSGSGTDFTLTISSLQPDDFATYYCQQYSNYPLTFGGGTKLEIK")
43.8

Here's the next entry for you.
# input binder: Antibody 22 scFv (scFv) QVQLQQSGAEVKKPGSSVKVSCKASGGTFSGYAISWVRQAPGQGLEWMGGIIPTFGTANYSQKFQGRVTITADESTSTAYMELSGLRSEDTAVYYCAREKRQWLEGHFDYWGRGTPVTVSSDIQMTQSLSFLSASIGDRVTITCRASEGIYHALAWYQQKPGKAPKLLIYRASSLASGAPSRFSGSGSGTDFTLTISSLQPDDFATYYCQQYSNYPLTFGGGTKLEIK ; wanted: its Chromogenic (IC50 in nM) cyno 1.5

Numbers sourced from patent US20130266566A1.
